# Tgt: human GcgR (Homo sapiens)
# Sequence (P47871 26-477): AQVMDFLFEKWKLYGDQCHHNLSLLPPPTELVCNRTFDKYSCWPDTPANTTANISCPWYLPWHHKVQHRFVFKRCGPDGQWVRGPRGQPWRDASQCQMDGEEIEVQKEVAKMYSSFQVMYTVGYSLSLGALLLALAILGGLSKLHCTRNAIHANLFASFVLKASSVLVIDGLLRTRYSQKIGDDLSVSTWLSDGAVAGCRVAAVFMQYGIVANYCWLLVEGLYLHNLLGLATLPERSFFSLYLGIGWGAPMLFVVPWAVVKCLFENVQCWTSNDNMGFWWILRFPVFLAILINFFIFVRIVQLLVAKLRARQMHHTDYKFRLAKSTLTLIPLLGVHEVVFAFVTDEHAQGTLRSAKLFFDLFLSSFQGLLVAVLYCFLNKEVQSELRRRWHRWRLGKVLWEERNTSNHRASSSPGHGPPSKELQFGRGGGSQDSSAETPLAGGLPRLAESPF
# Protocol Notes: Functional cAMP activity in the presence of 1% HSA
# Assay type: cell-based
# Test Settings: read-out: cAMP Rel EC50, hGcgR
Starred links: 1 amine or outer side, 2 acyl side, 3 side chain; linkers in the order of their positions; H or OH if unused. Non-standard residues stand in square brackets, D forms with d. Groups on a side chain read outwards from the residue. *: point of attachment. C18 diacid = O=C(O)CCCCCCCCCCCCCCCCC(=O)*; αMePhe(2-F) = C[C@](N)(Cc1ccccc1F)C(=O)O; γGlu = O=C(O)[C@H](CCC(=O)[*:2])N[*:1]; αMe4Pal = C[C@](N)(Cc1ccncc1)C(=O)O; αMeY = C[C@](N)(Cc1ccc(O)cc1)C(=O)O; 4Pal = N[C@@H](Cc1ccncc1)C(=O)O; αMeL = CC(C)C[C@](C)(N)C(=O)O; Orn = NCCC[C@H](N)C(=O)O; AEEA = NCCOCCOCC(=O)O; Aib = CC(C)(N)C(=O)O
Parameter: EC50
Don't forget the unit after the value.

Answered cases to consult:
Substance | EC50
H-Y[Aib]QGTFTSD[4Pal]SR[αMeL]LDKK([AEEA-γGlu-C18 diacid])AQ[αMe4Pal]AFIEYLIE[Aib]GPSSGAPPPSGS-NH2 [Example 809] | 377 nM
H-Y[Aib]QGTFTSDFS[Orn][αMeL]LDKK([AEEA-γGlu-C18 diacid])AQ[Aib]AFIEWLLEGGESSGAPPPEGS-NH2 [Example 125] | 901 nM

Now consider the entry below.
Return EC50 measured with human GcgR (Homo sapiens) given this substance: H-Y[Aib]QGT[αMePhe(2-F)]TSD[4Pal]SI[αMeL]LD[Orn]K([AEEA-γGlu-C18 diacid])AQ[αMe4Pal][Orn]FI[dE][αMeY]LIEGGPSSGDPPPEGTGE-NH2 [Example 732]
327 nM
